Biological target: PBP-lipo (Mycobacteroides abscessus, UniProt B1MDC3)
Sequence (B1MDC3 entry or part of it): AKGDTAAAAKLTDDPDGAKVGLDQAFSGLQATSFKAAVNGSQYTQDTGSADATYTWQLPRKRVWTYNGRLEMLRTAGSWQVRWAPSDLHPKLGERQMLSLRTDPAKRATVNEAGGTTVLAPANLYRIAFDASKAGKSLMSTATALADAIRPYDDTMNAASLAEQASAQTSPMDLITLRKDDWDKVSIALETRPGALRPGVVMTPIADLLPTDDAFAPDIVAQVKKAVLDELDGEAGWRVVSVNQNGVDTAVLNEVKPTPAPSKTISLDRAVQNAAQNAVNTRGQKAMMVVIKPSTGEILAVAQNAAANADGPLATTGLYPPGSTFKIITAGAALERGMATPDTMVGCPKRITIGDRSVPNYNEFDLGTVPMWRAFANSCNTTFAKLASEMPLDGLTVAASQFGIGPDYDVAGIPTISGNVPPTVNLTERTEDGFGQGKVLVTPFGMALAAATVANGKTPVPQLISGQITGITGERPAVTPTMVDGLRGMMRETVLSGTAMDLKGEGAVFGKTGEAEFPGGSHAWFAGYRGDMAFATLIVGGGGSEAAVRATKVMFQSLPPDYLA
List of Ki values.
Hi! Could you send only the number? It should be in nM, unit omitted.

| STRUCTURE | UNITS SYMBOL | Ki |
| --- | --- | --- |
| C[C@@H](O)[C@H]1C(=O)N2C(C(=O)O)=C(SCCN=CN)C[C@H]12 | nM | 1840 |

Here's the next entry for you.
Value (Ki, PBP-lipo (Mycobacteroides abscessus, UniProt B1MDC3)) for record C[C@@H](O)[C@H]1C(=O)N2C(C(=O)O)=C(S[C@@H]3CN[C@H](C(=O)N(C)C)C3)C[C@]12C = 258
